Tested on: HCT-116
method: Cytotoxicity against human HCT-116 cells assessed as inhibition of cell proliferation at 25 uM incubated for 72 hrs by MTT assay relative to control
Format: functional
Parameters: scale not given: the % may be the effect or the level left
Assignment: determine reported Activity for the given molecules.
Answers are plain numbers, in %.

C#CCN(c1nc(-c2cccc(C)c2)no1)C1CCCCC1 = 86.5
O=[N+]([O-])c1cccc(-c2noc(NC3CCCCC3)n2)c1 = 14.1
C#CCN(c1nc(-c2cccc([N+](=O)[O-])c2)no1)C1CCCCC1 = 24.8
C#CCN(c1nc(-c2cccc(Br)c2)no1)C1CCCCC1 = 65.6
COc1ccc(-c2noc(N(Cc3cn(C[C@H](CO[C@@H]4C=C[C@H](OC(C)=O)[C@@H](COC(C)=O)O4)OC(C)=O)nn3)C3CCCCC3)n2)cc1 = 24.2

Each molecule below has a reported value. Please supply its Activity.
1. C#CCN(c1nc(-c2ccc(F)cc2)no1)C1CCCCC1
2. C#CCN(c1nc(-c2ccc(OC)cc2)no1)C1CCCCC1
3. C#CCOc1ccc(-c2noc(NC3CCCCC3)n2)cc1
4. C#CCN(c1nc(-c2ccc([N+](=O)[O-])cc2)no1)C1CCCCC1
5. CC(=O)OC[C@H]1O[C@H](OC[C@@H](Cn2cc(CN(c3nc(-c4cccc(C)c4)no3)C3CCCCC3)nn2)OC(C)=O)C=C[C@@H]1OC(C)=O

[reply]
1. 44.9
2. 40.7
3. 43.3
4. 37.2
5. 69.5
